Target: GST-AMPKα2/ß1/γ1 complex (full-length human AMPKα2) (Homo sapiens, UniProt P54619+P54646+Q9Y478)
Sequence (P54646 whole entry): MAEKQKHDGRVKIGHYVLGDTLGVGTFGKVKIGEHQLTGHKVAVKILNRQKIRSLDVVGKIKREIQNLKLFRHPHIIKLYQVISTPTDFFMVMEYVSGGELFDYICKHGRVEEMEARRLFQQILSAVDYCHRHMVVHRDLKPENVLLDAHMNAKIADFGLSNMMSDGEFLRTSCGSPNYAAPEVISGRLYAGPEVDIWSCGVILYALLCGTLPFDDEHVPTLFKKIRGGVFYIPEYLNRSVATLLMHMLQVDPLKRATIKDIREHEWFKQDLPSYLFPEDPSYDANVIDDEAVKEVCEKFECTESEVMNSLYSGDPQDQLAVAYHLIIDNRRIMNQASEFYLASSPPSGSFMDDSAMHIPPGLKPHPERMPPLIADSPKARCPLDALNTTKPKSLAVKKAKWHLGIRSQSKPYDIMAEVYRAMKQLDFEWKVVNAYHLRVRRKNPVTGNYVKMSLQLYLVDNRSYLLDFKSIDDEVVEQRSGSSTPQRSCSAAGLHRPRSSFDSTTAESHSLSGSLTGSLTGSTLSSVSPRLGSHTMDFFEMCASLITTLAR
Sequence (Q9Y478 whole entry partner): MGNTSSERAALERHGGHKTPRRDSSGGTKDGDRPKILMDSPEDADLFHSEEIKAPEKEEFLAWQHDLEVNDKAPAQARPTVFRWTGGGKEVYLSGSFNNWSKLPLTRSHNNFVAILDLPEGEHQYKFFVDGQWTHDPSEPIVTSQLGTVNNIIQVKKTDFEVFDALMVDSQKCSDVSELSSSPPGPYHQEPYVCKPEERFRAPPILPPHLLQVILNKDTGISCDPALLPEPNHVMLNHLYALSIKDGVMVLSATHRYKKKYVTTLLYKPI
Sequence (P54619 whole entry partner): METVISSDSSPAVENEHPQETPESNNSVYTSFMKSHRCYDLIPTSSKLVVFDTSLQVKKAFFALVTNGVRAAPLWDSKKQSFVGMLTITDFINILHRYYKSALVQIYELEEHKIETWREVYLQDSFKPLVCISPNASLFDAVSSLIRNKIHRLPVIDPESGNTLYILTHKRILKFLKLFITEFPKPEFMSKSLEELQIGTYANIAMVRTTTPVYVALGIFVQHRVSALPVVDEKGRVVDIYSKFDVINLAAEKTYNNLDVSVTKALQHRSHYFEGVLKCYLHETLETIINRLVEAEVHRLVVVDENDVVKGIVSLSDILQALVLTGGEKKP
Assay: AMPK high ATP assay (TR-FRET-based AMPK activity inhibition assay)
Conditions: ATP concentration of 1 mM; median; read-out: AMPK high ATP assay IC50 [mol/l] (median)
Each record is given Satisfied if its reported IC50 is strictly below 50 nM. Records at or above 50 nM are given Not satisfied.

> print(dat)
                                   compound  discrete.label
1  CCc1c(F)c(C2C(C#N)=C(C)N(C)C(C)=C2C#N)cc2c(NC(=O)c3c(F)cccc3F)n[nH]c12       Satisfied
2  COC(=O)C12C3C4C1C1C2C3C41C(=O)Nc1n[nH]c2c(C)c(F)c(C3C(C#N)=C(C)N(C)C(C)=C3C#N)cc12 (centres unmarked)   Not satisfied
3  CC1=C(C#N)C(c2ccc3[nH]nc(NC(=O)c4ccccc4)c3c2)C(C#N)=C(C)N1 [Reference Example 1, reference compound]   Not satisfied
4  CC1=C(C#N)C(c2cc3c(NC(=O)c4cnn(CC(C)(C)O)c4C(F)(F)F)n[nH]c3c(C)c2F)C(C#N)=C(C)N1C       Satisfied
5  CCc1c(F)c(C2C(C#N)=C(C)N(C)C(C)=C2C#N)cc2c(NC(=O)c3ccccc3Cl)n[nH]c12   Not satisfied
6  CC1=C(C#N)C(c2cc3c(NC(=O)c4ccccc4Cl)n[nH]c3c(C(F)(F)F)c2F)C(C#N)=C(C)N1C       Satisfied
7  CC1=C(C#N)C(c2cc3c(NC(=O)c4cn(C)nc4C(F)(F)F)n[nH]c3c(I)c2F)C(C#N)=C(C)N1C   Not satisfied
8  CC1=C(C#N)C(c2cc3c(NC(=O)c4c(F)cccc4Cl)n[nH]c3c(C)c2F)C(C#N)=C(C)N1C       Satisfied

Query :: For this compound, is IC50 lower than 50 nM? CC1=C(C#N)C(c2cc3c(NC(=O)c4cn(CC(C)(C)O)nc4C(F)(F)F)n[nH]c3c(C)c2F)C(C#N)=C(C)N1C
Result :: Satisfied

====

# Lookup of reported pIC50 keyed by entry
Target: GST-AMPKα2/ß1/γ1 complex (full-length human AMPKα2) (Homo sapiens, UniProt P54619+P54646+Q9Y478)
Test: AMPK high ATP assay (TR-FRET-based AMPK activity inhibition assay)
Details: ATP concentration of 1 mM; median; read-out: AMPK high ATP assay IC50 [mol/l] (median)
// pIC50: -log10(molar conc.)

Answered examples (3):
> print(dat)
                                   compound  quantity  quantitative.result
1  CCn1nc(C)cc1C(=O)Nc1n[nH]c2c(C(F)(F)F)c(F)c(C3C(C#N)=C(C)N(C)C(C)=C3C#N)cc12 [Example 33]     pIC50                 7.60
2  CCc1ccccc1C(=O)Nc1n[nH]c2c(CC)c(F)c(C3C(C#N)=C(C)N(C)C(C)=C3C#N)cc12 [Example 27]     pIC50                 7.23
3  CCc1c(F)c(C2C(C#N)=C(C)N(C)C(C)=C2C#N)cc2c(NC(=O)c3cc(C)nn3CC)n[nH]c12 [Example 30]     pIC50                 7.16

Now, please, on to the next compound.
Query :: Provide pIC50 value for the following compound: CC1=C(C#N)C(c2cc3c(NC(=O)c4ccc(OCCN5CCCC5)cc4Cl)n[nH]c3c(I)c2F)C(C#N)=C(C)N1C [Example 4]
Result :: 8.57
